- test system: Cytochrome P450 11B1, mitochondrial (Bos taurus)
- Sequence (P15150 whole entry): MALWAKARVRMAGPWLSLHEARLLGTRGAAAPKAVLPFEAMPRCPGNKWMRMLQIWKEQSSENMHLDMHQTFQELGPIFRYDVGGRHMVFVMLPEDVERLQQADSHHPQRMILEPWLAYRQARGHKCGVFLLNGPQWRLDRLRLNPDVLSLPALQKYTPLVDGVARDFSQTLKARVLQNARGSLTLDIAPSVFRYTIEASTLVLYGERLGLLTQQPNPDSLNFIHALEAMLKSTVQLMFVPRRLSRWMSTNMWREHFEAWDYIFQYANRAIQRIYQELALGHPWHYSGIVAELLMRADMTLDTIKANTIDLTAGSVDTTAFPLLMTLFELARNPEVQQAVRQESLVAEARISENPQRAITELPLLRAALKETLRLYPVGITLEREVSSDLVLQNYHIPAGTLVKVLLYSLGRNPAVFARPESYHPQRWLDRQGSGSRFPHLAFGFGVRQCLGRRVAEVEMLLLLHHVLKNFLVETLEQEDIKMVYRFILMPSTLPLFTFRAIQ
- test details: Evaluated for inhibition of bovine adrenal cortical mitochondrial 11 beta-hydroxylase
Values of IC50 strictly less than 7 µM map to label 1, and values of at least 7 µM map to label 0.

1. O=C(Cc1cccnc1)c1ccccc1    label 0
2. CC(C(=O)c1ccccc1)c1cccnc1 (stereo not given)    label 0
3. CC(C)(Cc1ccccc1)c1cccnc1    label 1
4. CC(C)(c1cccnc1)C(I)c1cccnc1 (stereo not given)    label 1
5. CC(C)(c1cccnc1)C(Cl)c1ccccc1 (stereo not given)    label 1
6. CC(C)(Cc1cccnc1)c1cccnc1    label 1
7. CC(C)(c1cccnc1)C(O)c1ccccc1 (stereo not given)    label 1
8. CC(C)(c1cccnc1)C(N)c1cccnc1 (stereo not given)    label 0
9. CC(C)(c1cccnc1)C(Cl)c1cccnc1 (stereo not given)    label 0
10. CC(C)(C(=O)c1ccccc1)c1cccnc1    label 1
11. COC(c1cccnc1)C(C)(C)c1cccnc1 (stereo not given)    label 0
12. CC(=O)NC(c1cccnc1)C(C)(C)c1cccnc1 (stereo not given)    label 0
13. CC(C)(C(=NO)c1cccnc1)c1cccnc1    label 1
14. CC(C)(C(=O)c1cccnc1)c1cccnc1 [METYRAPONE]    label 0
